Biological target: PTP MEG2 (Homo sapiens)
Construct: made in house; host or cells: E. coli BL-21 (pGEX 6P-1)
Sequence (P43378 262-593 limits assumed): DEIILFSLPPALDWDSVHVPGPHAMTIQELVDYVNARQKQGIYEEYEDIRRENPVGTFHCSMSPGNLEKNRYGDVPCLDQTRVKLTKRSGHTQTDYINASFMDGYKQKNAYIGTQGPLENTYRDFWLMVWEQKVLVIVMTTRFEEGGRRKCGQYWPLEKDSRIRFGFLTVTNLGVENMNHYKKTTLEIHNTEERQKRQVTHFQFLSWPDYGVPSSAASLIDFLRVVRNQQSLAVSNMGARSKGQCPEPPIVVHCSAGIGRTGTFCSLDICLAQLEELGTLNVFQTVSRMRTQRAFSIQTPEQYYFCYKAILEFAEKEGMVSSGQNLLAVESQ
Assay: PTP IC50 assay, pNPP or FDP as substrate
Assay type: biochemical
Conditions: pNPP or FDP as substrate, 25° C.; read-out: PTP IC50 MEG2
Procedure: The following in vitro assay procedure is preferred to determine the level of activity and effect of the different compounds of the present invention on one or more of the PTPs. […] The catalytic assays described herein are performed in a 96-well format. […] Next, the Michaelis-Menten constant, or Km, is determined for each specific substrate-PTP system. […] All assays were performed using pNPP or FDP as substrate. The optimum pH was determined for each PTP used. […]

{"cpd.smiles": "COC(=O)c1cc(Oc2ccc(S(=O)(=O)C(F)(F)F)cc2[N+](=O)[O-])cc(Oc2ccc(S(=O)(=O)C(F)(F)F)cc2[N+](=O)[O-])c1", "IC50": "> 100 µM"}
{"cpd.smiles": "O=C(O)Cc1ccccc1CC(=O)Nc1cccc(S(=O)(=O)C(F)(F)F)c1", "IC50": "> 100 µM"}
{"cpd.smiles": "O=S(=O)(Nc1ccc(Oc2ccc(NS(=O)(=O)C(F)(F)F)cc2)cc1)C(F)(F)F", "IC50": "> 100 µM"}
